# Test system: HPPD polypeptides
# assay text: coupled HPPD activity assay: turnover and residual turnover in crude extracts
# Format: biochemical, Pseudomonas fluorescens
# run parameters: presence of 100 μM Cmpd. 1; high substrate concentration; changes in absorbance (OD) at 320 nm
// Residual turnover lookup, one value per entry

| molecule | Residual turnover |
| --- | --- |
| SEQ ID NO:71 (protein, mutant HPPD polypeptide) MADLYENPMGLMGFEFIEFASPTPGTLEPIFEIMGFTKVATHRSKNVHLYRQGEINLILNNEPNSIASYFAAEHGPSVCGMAFRVKDSQKAYNRALELGAQPIHIDTGPMELNLPAIKGIGGAPLYLIDRFGEGSSIYDIDFVYLEGVERNPVGAGLKVIDHLTHNVYRGRMVYWANFYEKLFNFREARYFDIKGEYTGLTSKAMSAPDGMIRILLNEESSKGAGQIEEFLMQFNGEGIQHVAFLTDDLVKTWDALKKIGMRFMTAPPDTYYEMLEGRLPDHGEPVDQLQARGILLDGSSVEGDKRLLLQIFSETLMGPVFFEFIQRKGDDGFGPFNFKELFESIERDQVRRGVLTAD | 0.022 |
| 38 (protein, mutant HPPD polypeptide) MADLYENPMGLMGFEFIEFASPTPGTLEPIFEIMGFTKVATHRSKNVHLYRQGEINLILNNEPNSIASYFAAEHGPSVCGMAFRVKDSQKAYNRALELGAQPIHIDTGPMELNLPAIKGIGGAPLYLIDRFGEGSSIYDIDFVYLEGVERNPVGAGLKVIDHLTHNVYRGRMVYWANFYEKLFNFREARYFDIKGEYTGLTSKAMSAPDGMIRIPLNEESSKGAGQIEEFLMQFNGEGIQHVAFLTDDLVKTWDALKKIGMRFMTAPADEYYEMLEGRLPDHGEPVDQLQARGILLDGSSVEGDKRLLLQIFSETLMGPVFFEFIQRKGDDGFGPHSFKVLFESVERDQVRRGVLTAD | 0.129 |
